Recorded residual activity values for a group of compounds are listed next.
target: Serine/threonine-protein kinase TAO2 (Homo sapiens) (UniProt Q9UL54); details: at 1 µM
Sequence (Q9UL54 whole entry): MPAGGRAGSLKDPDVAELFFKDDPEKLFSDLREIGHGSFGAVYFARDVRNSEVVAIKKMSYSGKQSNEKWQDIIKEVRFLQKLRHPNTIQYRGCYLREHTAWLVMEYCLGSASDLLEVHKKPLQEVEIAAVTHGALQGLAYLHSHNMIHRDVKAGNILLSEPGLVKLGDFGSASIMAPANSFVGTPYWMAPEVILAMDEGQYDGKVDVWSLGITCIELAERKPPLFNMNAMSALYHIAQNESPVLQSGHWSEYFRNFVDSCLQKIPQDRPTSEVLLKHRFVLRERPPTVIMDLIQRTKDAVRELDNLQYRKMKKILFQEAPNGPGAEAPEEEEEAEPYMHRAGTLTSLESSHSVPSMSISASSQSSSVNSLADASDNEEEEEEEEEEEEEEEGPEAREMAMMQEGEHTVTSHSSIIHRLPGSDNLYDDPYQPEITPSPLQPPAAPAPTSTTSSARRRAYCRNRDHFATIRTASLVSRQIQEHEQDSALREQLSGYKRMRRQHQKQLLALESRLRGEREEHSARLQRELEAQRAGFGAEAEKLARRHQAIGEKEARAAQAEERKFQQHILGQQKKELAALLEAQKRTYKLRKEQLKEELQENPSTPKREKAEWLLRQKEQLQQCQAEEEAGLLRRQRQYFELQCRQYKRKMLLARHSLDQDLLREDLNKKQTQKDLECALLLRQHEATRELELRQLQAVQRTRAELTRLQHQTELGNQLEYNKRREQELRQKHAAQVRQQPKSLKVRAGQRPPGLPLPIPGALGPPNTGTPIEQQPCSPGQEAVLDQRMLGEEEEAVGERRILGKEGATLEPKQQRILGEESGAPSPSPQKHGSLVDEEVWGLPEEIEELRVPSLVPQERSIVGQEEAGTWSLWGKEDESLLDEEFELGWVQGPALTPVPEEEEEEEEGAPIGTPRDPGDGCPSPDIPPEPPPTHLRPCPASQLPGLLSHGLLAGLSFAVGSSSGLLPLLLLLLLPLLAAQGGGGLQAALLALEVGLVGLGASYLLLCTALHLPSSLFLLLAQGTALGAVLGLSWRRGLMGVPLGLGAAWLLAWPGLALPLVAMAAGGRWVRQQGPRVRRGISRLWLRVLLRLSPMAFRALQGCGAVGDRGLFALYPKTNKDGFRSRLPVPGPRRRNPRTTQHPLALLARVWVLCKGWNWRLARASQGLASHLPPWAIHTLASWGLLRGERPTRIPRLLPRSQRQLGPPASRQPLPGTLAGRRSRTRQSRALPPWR
Write the number in % without appending the unit.

Q: Given the entry N#C/C(=C(\N)Sc1ccc(N)cc1)c1ccccc1C(F)(F)F , report its measured residual activity.
Result: 102

---

target: Ephrin type-A receptor 5 (Homo sapiens); conditions: at 10 µM
READOUT LABEL: residual activity (%)
Write the number in % without appending the unit.

A selection of reference data follows.
- CHEMICAL SMILES: "COc1cccc(-c2cc(=O)c3ccccc3o2)c1N"
  residual activity / %: 96
- CHEMICAL SMILES: "N#CC(C#N)=C(N)/C(C#N)=C/c1ccc(O)cc1"
  residual activity / %: 96
- CHEMICAL SMILES: "COc1cc2ncnc(Nc3ccc(O)c(Br)c3)c2cc1OC"
  residual activity / %: 21

Q: Given the entry N#Cc1cnc2cnc(NCc3cccnc3)cc2c1Nc1ccc(F)c(Cl)c1 , report its measured residual activity.
Result: 46

Q: Given the entry Cc1nc2cc3nc(-c4cccs4)cnc3cc2n1C , report its measured residual activity.
Result: 114

Q: Given the entry O=c1cc(-c2cccc3c2Sc2ccccc2S3)oc(N2CCOCC2)c1 , report its measured residual activity.
Result: 88

Q: Given the entry Nc1cccc(-c2cc3c(Oc4cccc(O)c4)ncnc3[nH]2)c1 , report its measured residual activity.
Result: 2

Q: Given the entry Cc1cc(Nc2nc(-c3ccccc3)nc3ccccc23)n[nH]1 , report its measured residual activity.
Result: 33

Q: Given the entry CO[C@H]1C[C@@H]2CC[C@@H](C)[C@@](O)(O2)C(=O)C(=O)N2CCCC[C@H]2C(=O)O[C@H]([C@H](C)C[C@@H]2CC[C@@H](O)[C@H](OC)C2)CC(=O)[C@H](C)/C=C(\C)[C@@H](O)[C@@H](OC)C(=O)[C@H](C)C[C@H](C)/C=C/C=C/C=C/1C , report its measured residual activity.
Result: 116

Q: Given the entry c1ccc(-c2n[nH]cc2-c2ccnc3ccccc23)nc1 , report its measured residual activity.
Result: 103

Q: Given the entry O=[N+]([O-])c1ccc(-c2nc(-c3ccc(F)cc3)c(-c3ccncc3)[nH]2)cc1 , report its measured residual activity.
Result: 94

Q: Given the entry COc1ccc(C(=O)Nc2sc3c(c2C(N)=O)CCCC3)cc1OC , report its measured residual activity.
Result: 108

Q: Given the entry COc1cc2ncnc(Nc3ccc(NC(=O)c4ccccc4)cc3)c2cc1OC , report its measured residual activity.
Result: 97

Q: Given the entry CC(=O)c1ccc(N2CCOCC2)cc1O , report its measured residual activity.
Result: 101

Q: Given the entry CN(C)c1ccc(/C=C2\C(=O)Nc3ccccc32)cc1 , report its measured residual activity.
Result: 112

---

Recorded residual activity values for a group of molecules are listed next.
biological target: Proto-oncogene tyrosine-protein kinase ROS (Homo sapiens); settings: at 10 µM
Write the number in % without appending the unit.

A selection of reference data follows.
- CHEMICAL SMILES: "c1ccc2c(-c3ccncc3)c[nH]c2c1"
  UNIT OF MEASUREMENT: "%"
  residual activity: 92
- CHEMICAL SMILES: "O=C1NC(=O)c2cc(Nc3ccc(F)cc3)c(Nc3ccc(F)cc3)cc21"
  UNIT OF MEASUREMENT: "%"
  residual activity: 92
- CHEMICAL SMILES: "CO[C@H]1C[C@@H]2CC[C@@H](C)[C@@](O)(O2)C(=O)C(=O)N2CCCC[C@H]2C(=O)O[C@H]([C@H](C)C[C@@H]2CC[C@@H](O)[C@H](OC)C2)CC(=O)[C@H](C)/C=C(\\C)[C@@H](O)[C@@H](OC)C(=O)[C@H](C)C[C@H](C)/C=C/C=C/C=C/1C"
  UNIT OF MEASUREMENT: "%"
  residual activity: 92

Q: Given the entry CC(=O)O/N=C1\C(=C2\C(=O)Nc3cc(Br)ccc32)Nc2ccccc21 , report its measured residual activity.
Result: 90

---

target: Serine/threonine-protein kinase 33 (Homo sapiens); conditions: at 10 µM
Recorded residual activity values for a group of compounds are listed next.
State the value, then name its unit.

- CHEMICAL SMILES: "N#Cc1cnc2cnc(NCc3cccnc3)cc2c1Nc1ccc(F)c(Cl)c1"
  VALUE OBSERVED: "77%"
- CHEMICAL SMILES: "CNc1cc2c(Nc3cccc(Br)c3)ncnc2cn1"
  VALUE OBSERVED: "93%"

Q: Record CC(=O)c1ccc(N2CCOCC2)cc1O : what is its residual activity with Serine/threonine-protein kinase 33 (Homo sapiens)?
Result: 105%

Q: Record Cc1cc(Nc2nc(-c3ccccc3)nc3ccccc23)n[nH]1 : what is its residual activity with Serine/threonine-protein kinase 33 (Homo sapiens)?
Result: 24%

Q: Record Oc1c2ccccc2c2c3c(cccc13)N=N2 : what is its residual activity with Serine/threonine-protein kinase 33 (Homo sapiens)?
Result: 16%

Q: Record Cc1cc2ncc(-c3ccccc3)nc2cc1C : what is its residual activity with Serine/threonine-protein kinase 33 (Homo sapiens)?
Result: 98%

Q: Record O=[N+]([O-])c1ccc(-c2nc(-c3ccc(F)cc3)c(-c3ccncc3)[nH]2)cc1 : what is its residual activity with Serine/threonine-protein kinase 33 (Homo sapiens)?
Result: 101%

---

target: Dual specificity protein kinase CLK2 (Homo sapiens) (UniProt P49760); settings: at 10 µM
Sequence (P49760 whole entry, looked up): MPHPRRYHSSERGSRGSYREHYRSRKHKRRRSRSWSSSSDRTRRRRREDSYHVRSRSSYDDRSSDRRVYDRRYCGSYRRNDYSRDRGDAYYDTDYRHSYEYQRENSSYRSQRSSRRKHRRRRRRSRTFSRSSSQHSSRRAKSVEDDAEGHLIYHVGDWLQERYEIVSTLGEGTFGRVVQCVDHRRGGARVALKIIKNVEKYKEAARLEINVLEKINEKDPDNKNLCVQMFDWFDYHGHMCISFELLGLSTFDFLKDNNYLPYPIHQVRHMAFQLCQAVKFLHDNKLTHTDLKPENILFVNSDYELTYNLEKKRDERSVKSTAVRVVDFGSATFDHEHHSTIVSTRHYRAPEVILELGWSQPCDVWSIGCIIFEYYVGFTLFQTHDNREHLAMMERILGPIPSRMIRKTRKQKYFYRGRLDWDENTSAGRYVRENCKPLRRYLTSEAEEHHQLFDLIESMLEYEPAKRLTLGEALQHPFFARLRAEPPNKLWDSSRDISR
READOUT LABEL: residual activity (%)
Write the number in % without appending the unit.

A selection of reference data follows.
- CHEMICAL SMILES: "COc1cc2ncnc(N3CCN(C(=O)Nc4ccc(Oc5ccccc5)cc4)CC3)c2cc1OC"
  residual activity (%): 55
- CHEMICAL SMILES: "O=C1Nc2cc(Br)ccc2/C1=C1/Nc2ccccc2/C1=N\\O"
  residual activity (%): 74
- CHEMICAL SMILES: "CO[C@H]1C[C@@H]2CC[C@@H](C)[C@@](O)(O2)C(=O)C(=O)N2CCCC[C@H]2C(=O)O[C@H]([C@H](C)C[C@@H]2CC[C@@H](O)[C@H](OC)C2)CC(=O)[C@H](C)/C=C(\\C)[C@@H](O)[C@@H](OC)C(=O)[C@H](C)C[C@H](C)/C=C/C=C/C=C/1C"
  residual activity (%): 137
- CHEMICAL SMILES: "CCN(CC)CCCCN1c2ccccc2Oc2ccc(Cl)cc21"
  residual activity (%): 127
- CHEMICAL SMILES: "O=c1c2ccccc2[nH]c(=S)n1CCN1CCC(=C(c2ccc(F)cc2)c2ccc(F)cc2)CC1"
  residual activity (%): 94
- CHEMICAL SMILES: "CNc1cc2c(Nc3cccc(Br)c3)ncnc2cn1"
  residual activity (%): 98

Q: Given the entry COc1cc2ncnc(Nc3ccc(NC(=O)c4ccccc4)cc3)c2cc1OC , report its measured residual activity.
Result: 82

---

Target: Discoidin domain-containing receptor 2 (Homo sapiens) (UniProt Q16832)
Sequence (whole entry): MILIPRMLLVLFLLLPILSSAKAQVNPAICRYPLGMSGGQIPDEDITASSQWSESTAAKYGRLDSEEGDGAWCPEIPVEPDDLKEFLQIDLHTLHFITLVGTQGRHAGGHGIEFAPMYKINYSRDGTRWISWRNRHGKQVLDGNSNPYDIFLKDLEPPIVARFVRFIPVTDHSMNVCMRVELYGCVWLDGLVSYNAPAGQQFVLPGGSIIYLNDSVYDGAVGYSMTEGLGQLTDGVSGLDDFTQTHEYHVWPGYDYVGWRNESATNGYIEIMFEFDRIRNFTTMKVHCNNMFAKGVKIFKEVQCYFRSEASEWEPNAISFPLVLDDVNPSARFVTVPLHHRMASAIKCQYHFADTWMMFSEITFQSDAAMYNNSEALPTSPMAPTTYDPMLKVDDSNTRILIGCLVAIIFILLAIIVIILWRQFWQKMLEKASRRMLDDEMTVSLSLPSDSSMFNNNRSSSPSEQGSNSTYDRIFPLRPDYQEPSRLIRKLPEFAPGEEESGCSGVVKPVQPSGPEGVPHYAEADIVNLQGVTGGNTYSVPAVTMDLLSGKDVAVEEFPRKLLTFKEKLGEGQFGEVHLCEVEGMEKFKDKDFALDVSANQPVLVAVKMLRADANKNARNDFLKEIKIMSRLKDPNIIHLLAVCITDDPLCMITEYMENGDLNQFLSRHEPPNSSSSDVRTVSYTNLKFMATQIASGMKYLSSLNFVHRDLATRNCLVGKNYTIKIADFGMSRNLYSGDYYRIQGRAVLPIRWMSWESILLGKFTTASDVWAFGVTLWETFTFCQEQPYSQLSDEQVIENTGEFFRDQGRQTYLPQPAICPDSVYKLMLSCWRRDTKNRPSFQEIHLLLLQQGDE
Conditions: at 10 µM
Recorded residual activity values for a group of molecules are listed next.
Write the number in % without appending the unit.

A selection of reference data follows.
- MOLECULE: "COc1cc2ncc(-c3ccccc3)nc2cc1OC"
  UNIT OF MEASUREMENT: "%"
  residual activity: 92
- MOLECULE: "COc1ccc(OC)c2c(=S)c3ccccc3[nH]c12"
  UNIT OF MEASUREMENT: "%"
  residual activity: 103
- MOLECULE: "O=c1c2ccccc2[nH]c(=S)n1CCN1CCC(=C(c2ccc(F)cc2)c2ccc(F)cc2)CC1"
  UNIT OF MEASUREMENT: "%"
  residual activity: 87
- MOLECULE: "O=C(Nc1cccc(Nc2nccc(Nc3cccc(C(F)(F)F)c3)n2)c1)C1CC1"
  UNIT OF MEASUREMENT: "%"
  residual activity: 30
- MOLECULE: "CC(=O)c1ccc(N2CCOCC2)cc1O"
  UNIT OF MEASUREMENT: "%"
  residual activity: 97

Q: Given the entry NC(=O)c1ccc2[nH]c(-c3ccc(Oc4ccc(Cl)cc4)cc3)nc2c1 , report its measured residual activity.
Result: 102

Q: Given the entry CC(C)n1cnc2c(NCc3ccccc3)nc(NCCCO)nc21 , report its measured residual activity.
Result: 91

Q: Given the entry N#C/C(=C(\N)Sc1ccc(N)cc1)c1ccccc1C(F)(F)F , report its measured residual activity.
Result: 108

Q: Given the entry COc1ccc(CNc2nc(N(CCO)CCO)nc3c2ncn3C(C)C)cc1 , report its measured residual activity.
Result: 96

Q: Given the entry CCN(CC)CCCCN1c2ccccc2Oc2ccc(Cl)cc21 , report its measured residual activity.
Result: 90

Q: Given the entry O=C1Nc2ccccc2/C1=C1/Nc2ccccc2/C1=N\OCCC(O)CO (centres undefined) , report its measured residual activity.
Result: 46

Q: Given the entry O=C(Nc1cccc(Nc2cc(Nc3cccc(C(F)(F)F)c3)ncn2)c1)C1CC1 , report its measured residual activity.
Result: 94

Q: Given the entry O=C1NC(=O)c2c1c1c3ccccc3[nH]c1c1[nH]c3cc(Br)ccc3c21 , report its measured residual activity.
Result: 98

Q: Given the entry CCC(=O)Nc1ccc2ncnc(Nc3cccc(Br)c3)c2c1 , report its measured residual activity.
Result: 82

Reference source: ChEMBL document CHEMBL2218924
